Target: Tyrosyl-DNA phosphodiesterase 1 (TDP1) (Homo sapiens)
Construct: TDP1 wild type (full-length, recombinant from E. coli, pLate31-TDP1)
Sequence (Q9NUW8 whole entry): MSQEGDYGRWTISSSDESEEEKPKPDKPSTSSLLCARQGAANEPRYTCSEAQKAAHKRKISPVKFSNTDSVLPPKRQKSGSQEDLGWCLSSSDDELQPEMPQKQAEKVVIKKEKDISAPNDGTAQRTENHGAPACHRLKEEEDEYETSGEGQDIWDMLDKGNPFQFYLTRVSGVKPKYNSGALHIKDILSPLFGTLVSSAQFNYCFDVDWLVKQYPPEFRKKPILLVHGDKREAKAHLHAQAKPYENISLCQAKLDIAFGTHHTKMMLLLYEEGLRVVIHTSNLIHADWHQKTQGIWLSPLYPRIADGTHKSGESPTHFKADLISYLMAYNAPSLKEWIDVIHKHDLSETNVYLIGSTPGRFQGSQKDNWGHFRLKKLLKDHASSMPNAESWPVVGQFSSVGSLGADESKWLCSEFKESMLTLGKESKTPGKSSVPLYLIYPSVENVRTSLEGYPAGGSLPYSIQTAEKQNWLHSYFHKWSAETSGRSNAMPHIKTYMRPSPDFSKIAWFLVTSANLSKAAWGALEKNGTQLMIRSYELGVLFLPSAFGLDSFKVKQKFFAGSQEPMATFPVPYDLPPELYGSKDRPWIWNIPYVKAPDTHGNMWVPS
Assay: real-time fluorimetric assay with FAM/BHQ1 oligonucleotide; V(S) kinetics; EMSA and fluorescence anisotropy show no DNA competition
readoutName: IC50 (nM)

>>> valuereported("CC(=O)c1c(O)c(C)c(O)c2c1OC1=CC(=O)C(=C(C)NCCCc3cc(C(C)(C)C)c(O)c(C(C)(C)C)c3)C(=O)C12C (stereo not shown)")
1400

Data credit: paper PMC13114712
